# test system: Bifunctional epoxide hydrolase 2 (Homo sapiens, UniProt P34913)
# Sequence (P34913 whole entry): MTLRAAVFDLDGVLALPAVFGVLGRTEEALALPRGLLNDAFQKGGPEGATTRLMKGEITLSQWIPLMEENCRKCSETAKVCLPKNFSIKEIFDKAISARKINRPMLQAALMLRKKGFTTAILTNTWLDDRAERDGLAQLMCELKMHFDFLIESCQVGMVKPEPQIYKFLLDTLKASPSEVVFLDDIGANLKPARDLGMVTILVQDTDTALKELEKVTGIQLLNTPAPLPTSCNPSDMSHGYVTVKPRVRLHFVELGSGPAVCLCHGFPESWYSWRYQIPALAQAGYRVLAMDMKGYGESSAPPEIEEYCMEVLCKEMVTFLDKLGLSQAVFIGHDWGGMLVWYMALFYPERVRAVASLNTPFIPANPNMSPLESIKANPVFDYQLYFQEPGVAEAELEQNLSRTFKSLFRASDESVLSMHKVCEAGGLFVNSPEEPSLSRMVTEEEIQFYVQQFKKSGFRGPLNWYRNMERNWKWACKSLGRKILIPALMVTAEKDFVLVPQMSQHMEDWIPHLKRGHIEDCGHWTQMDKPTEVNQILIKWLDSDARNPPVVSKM
# experiment: Inhibition of human sEH assessed as 6-methoxy-2-naphthaldehyde generation preincubated for 10 before addition of cyano(2-methyl-oxynaphthalen-6-yl)methyl trans-(3-phenyloxyran-2-yl) methyl carbonate by fluorescence analysis
Recorded measurements of pIC50, one per entry
Please note pIC50 is a logarithmic value: minus log10 of concentration in mol/L. Answer with that number alone.

Some entries whose results are on file:
mol smiles | pIC50
COC(=O)c1ccc(NC(=O)C2CCN(S(=O)(=O)c3ccc(C)cc3C)CC2)cc1 | 8.07
Cc1ccc(S(=O)(=O)N2CCC(C(=O)Nc3ccc(S(=O)(=O)C(F)(F)F)cc3)CC2)c(C)c1 | 8.80
COc1cc2c(cc1NC(=O)C1CCN(S(=O)(=O)c3ccc(C)cc3C)CC1)OCO2 | 4.52
Cc1ccc(S(=O)(=O)N2CCC(C(=O)Nc3ccccc3Br)CC2)c(C)c1 | 9.22
Cc1ccc(S(=O)(=O)N2CCC(C(=O)Nc3ccc(C(C)C)cc3)CC2)c(C)c1 | 8.17

# input Consider the compound shown here: Cc1ccc(S(=O)(=O)N2CCC(C(=O)Nc3ccc4ncccc4c3)CC2)c(C)c1 What is its recorded pIC50?
# output 7.89

# input Can you share its pIC50? I mean this compound: Cc1ccc(S(=O)(=O)N2CCC(C(=O)Nc3ccccc3F)CC2)c(C)c1
# output 8.96

# input Suppose we examine the compound Cc1ccc(S(=O)(=O)N2CCC(C(=O)Nc3ccc(Cl)c(C(F)(F)F)c3)CC2)c(C)c1 ; what pIC50 value has been reported?
# output 7.11

# input Which measured pIC50 value corresponds to Cc1ccc(S(=O)(=O)N2CCC(C(=O)Nc3cccc(C(F)(F)F)c3)CC2)c(C)c1 ?
# output 6.19

# input If you can, please state the reported pIC50 value of Cc1ccc(S(=O)(=O)N2CCC(C(=O)Nc3ccc(Br)cc3)CC2)c(C)c1 .
# output 7.35

# input For the compound Cc1ccc(S(=O)(=O)N2CCC(C(=O)Nc3ccc(Cl)cc3)CC2)c(C)c1 , what pIC50 is on record?
# output 5.66

# input Consider the compound Cc1ccc(S(=O)(=O)N2CCC(C(=O)Nc3ccc(C(=O)O)cc3)CC2)c(C)c1 and give its measured pIC50.
# output 7.77
